Tested on: 454973-116-R2-J3-PDC spheroids, percent test/control viability
Assay: Anticancer human tumor 454973-116-R2-J3-PDC patient-derived pancreatic carcinoma cell line growth inhibition [CLK]; active means viability on the fitted dose curve at most 10% of control; inactive means the rest
Details: second compound 1 µM; first compound 0.0316 µM; spheroids with HUVEC and MSC
Reply using exactly one outcome from t for active, f for inactive

Some entries whose results are on file:
{"molecule": "C#Cc1c(F)ccc2cc(O)cc(-c3ncc4c(N5CC6CCC(C5)N6)nc(OCC56CCCN5CC(F)C6)nc4c3F)c12 (stereo not drawn) + CNC(=O)c1ccc(Nc2nc(OC3CCCC3)c3c(-c4ccc5nc(C)oc5c4)c[nH]c3n2)c(OC)c1", "assigned category": "f"}
{"molecule": "Nc1ccccc1NC(=O)c1ccc(CNC(=O)OCc2cccnc2)cc1 + CN1CCN(c2cc(C(=O)Nc3cc4cc(-c5cnn(C)c5)ccc4cn3)ccn2)CC1", "assigned category": "t"}

Hi, do you know how Nc1ccn(C2OC(CO)C(O)C2(F)F)c(=O)n1 (stereo not drawn) + CNC(=O)c1ccc(Nc2nc(OC3CCCC3)c3c(-c4ccc5nc(C)oc5c4)c[nH]c3n2)c(OC)c1 came out in this test?
f

====

Test system: 454973-116-R2-J3-PDC spheroids, percent test/control viability
Test: Anticancer human tumor 454973-116-R2-J3-PDC cell line growth inhibition [CLK];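 further: spheroids exposed to compounds for 7 days before readout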
Conditions: second compound 1 µM; first compound 0.0316 µM; stronger effect = lower value; spheroids with HUVEC and MSC
assay endpoint: viability, T/C (%)
One number for each entry, in %.

Example compounds with recorded viability, T/C:
{"compound": "CC(Nc1ccc2c(c1)OCCn1cc(N3C(=O)OCC3C(F)F)nc1-2)C(N)=O (stereo not given) + CN1CCN(c2cc(C(=O)Nc3cc4cc(-c5cnn(C)c5)ccc4cn3)ccn2)CC1", "viability, T/C / %": 0.08}
{"compound": "CC1COCCN1c1cc(C2(S(C)(=N)=O)CC2)nc(-c2ccnc3[nH]ccc23)n1 (stereo not given) + CNC(=O)c1ccc(Nc2nc(OC3CCCC3)c3c(-c4ccc5nc(C)oc5c4)c[nH]c3n2)c(OC)c1", "viability, T/C / %": 27.9}
{"compound": "CCCS(=O)(=O)Nc1ccc(F)c(C(=O)c2c[nH]c3ncc(-c4ccc(Cl)cc4)cc23)c1F + CNC(=O)c1ccc(Nc2nc(OC3CCCC3)c3c(-c4ccc5nc(C)oc5c4)c[nH]c3n2)c(OC)c1", "viability, T/C / %": 32.2}
{"compound": "O=C(c1cc(Cc2n[nH]c(=O)c3ccccc23)ccc1F)N1CCN(C(=O)C2CC2)CC1 + CN1CCN(c2cc(C(=O)Nc3cc4cc(-c5cnn(C)c5)ccc4cn3)ccn2)CC1", "viability, T/C / %": 0.12}

Quick one: viability, T/C for O=c1[nH]cc(F)c(=O)[nH]1 + CNC(=O)c1ccc(Nc2nc(OC3CCCC3)c3c(-c4ccc5nc(C)oc5c4)c[nH]c3n2)c(OC)c1 ?
32.9

====

Test system: 454973-116-R2-J3-PDC spheroids, percent test/control viability
Assay: Anticancer human tumor 454973-116-R2-J3-PDC cell line growth inhibition [CLK]; active = viability on the fitted dose curve at most 10% of control; inactive = the rest;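 further: spheroids exposed to compounds for 7 days before readout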
Details: second compound 1 µM; first compound 0.01 µM; spheroids with HUVEC and MSC
Reply using exactly one outcome from t = active, f = inactive

{"molecule": "COc1c(OCCCN2CCOCC2)ccc2c3n(c(=NC(=O)c4cnc(N)nc4)nc12)CCN3 + CN1CCN(c2cc(C(=O)Nc3cc4cc(-c5cnn(C)c5)ccc4cn3)ccn2)CC1", "assigned category": "t"}
{"molecule": "CCN1CCN(Cc2ccc(Nc3ncc(F)c(-c4cc(F)c5nc(C)n(C(C)C)c5c4)n3)nc2)CC1 + CN1CCN(c2cc(C(=O)Nc3cc4cc(-c5cnn(C)c5)ccc4cn3)ccn2)CC1", "assigned category": "t"}
{"molecule": "CCc1c2c(nc3ccc(O)cc13)-c1cc3c(c(=O)n1C2)COC(=O)[C@]3(O)CC + CN1CCN(c2cc(C(=O)Nc3cc4cc(-c5cnn(C)c5)ccc4cn3)ccn2)CC1", "assigned category": "t"}

Hi, do you know how COc1c(OCCCN2CCOCC2)ccc2c3n(c(=NC(=O)c4cnc(N)nc4)nc12)CCN3 + CNC(=O)c1ccc(Nc2nc(OC3CCCC3)c3c(-c4ccc5nc(C)oc5c4)c[nH]c3n2)c(OC)c1 came out in this test?
f

Hi, do you know how CCN1CCN(Cc2ccc(Nc3ncc(F)c(-c4cc(F)c5nc(C)n(C(C)C)c5c4)n3)nc2)CC1 + CNC(=O)c1ccc(Nc2nc(OC3CCCC3)c3c(-c4ccc5nc(C)oc5c4)c[nH]c3n2)c(OC)c1 came out in this test?
f

====

Test system: 454973-116-R2-J3-PDC spheroids, percent test/control viability
Test: Anticancer human tumor 454973-116-R2-J3-PDC cell line growth inhibition [CLK];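 further: spheroids exposed to compounds for 7 days before readout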
Conditions: curve of first compound; second compound 0.0316 µM; spheroids with HUVEC and MSC
Give measured IC50 for each item. Keep answers brief.
Answers are plain numbers, in µM.

Example compounds with recorded IC50:
{"compound": "COC1C=CCC(C)C(C)S(=O)(=O)NC(=O)c2ccc3c(c2)N(CC2CCC21)CC1(CCCc2cc(Cl)ccc21)CO3 (stereo not given) + CNC(=O)c1ccc(Nc2nc(OC3CCCC3)c3c(-c4ccc5nc(C)oc5c4)c[nH]c3n2)c(OC)c1", "IC50 [µM]": 5.34}
{"compound": "Nc1ccccc1NC(=O)c1ccc(CNC(=O)OCc2cccnc2)cc1 + CN1CCN(c2cc(C(=O)Nc3cc4cc(-c5cnn(C)c5)ccc4cn3)ccn2)CC1", "IC50 [µM]": 2.1}

Quick one: IC50 for C=C(F)C(=O)N1CCN(c2nc(OCC3CCCN3C)nc3c2CCN(c2cccc4cccc(Cl)c24)C3)CC1CC#N (stereo not given) + CN1CCN(c2cc(C(=O)Nc3cc4cc(-c5cnn(C)c5)ccc4cn3)ccn2)CC1 ?
5.76

====

Test system: 454973-116-R2-J3-PDC spheroids, percent test/control viability
Assay: Anticancer human tumor 454973-116-R2-J3-PDC cell line growth inhibition [CLK]; active = viability on the fitted dose curve at most 10% of control; inactive = the rest;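 further: spheroids exposed to compounds for 7 days before readout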
Details: second compound 1 µM; first compound 0.01 µM; spheroids with HUVEC and MSC
Reply using exactly one outcome from true (1) (active), false (0) (inactive)

Some entries whose results are on file:
{"compound": "CCc1c2c(nc3ccc(O)cc13)-c1cc3c(c(=O)n1C2)COC(=O)[C@]3(O)CC + CNC(=O)c1ccc(Nc2nc(OC3CCCC3)c3c(-c4ccc5nc(C)oc5c4)c[nH]c3n2)c(OC)c1", "assigned category": "false (0)"}
{"compound": "Cn1ncnc1[C@H]1c2n[nH]c(=O)c3cc(F)cc(c23)N[C@@H]1c1ccc(F)cc1 + CNC(=O)c1ccc(Nc2nc(OC3CCCC3)c3c(-c4ccc5nc(C)oc5c4)c[nH]c3n2)c(OC)c1", "assigned category": "false (0)"}

Turning now to a further record.
Hi, do you know how Cn1ncnc1[C@H]1c2n[nH]c(=O)c3cc(F)cc(c23)N[C@@H]1c1ccc(F)cc1 + CN1CCN(c2cc(C(=O)Nc3cc4cc(-c5cnn(C)c5)ccc4cn3)ccn2)CC1 came out in this test?
true (1)

====

Tested on: 454973-116-R2-J3-PDC spheroids, percent test/control viability
Assay: Anticancer human tumor 454973-116-R2-J3-PDC cell line growth inhibition [CLK];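 further: spheroids exposed to compounds for 7 days before readout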
Conditions: second compound 0.1 µM; first compound 1 µM; stronger effect = lower value; spheroids with HUVEC and MSC
assay endpoint: viability, T/C (%)
One number for each entry, in %.

{"molecule": "COc1cccc2c1C(=O)c1c(O)c3c(c(O)c1C2=O)CC(O)(C(=O)CO)CC3OC1CC(N)C(O)C(C)O1 (stereo not drawn) + CNC(=O)c1ccc(Nc2nc(OC3CCCC3)c3c(-c4ccc5nc(C)oc5c4)c[nH]c3n2)c(OC)c1", "assay endpoint": "viability, T/C", "value unit": "%", "endpoint result": 4.09}

Give viability, T/C for each listed item.
1. C=CC(=O)N1CCN(c2nc(=O)n(-c3c(C)ccnc3C(C)C)c3nc(-c4c(O)cccc4F)c(F)cc23)C(C)C1 (stereo not drawn) + CN1CCN(c2cc(C(=O)Nc3cc4cc(-c5cnn(C)c5)ccc4cn3)ccn2)CC1
2. Nc1ccn(C2OC(CO)C(O)C2(F)F)c(=O)n1 (stereo not drawn) + CNC(=O)c1ccc(Nc2nc(OC3CCCC3)c3c(-c4ccc5nc(C)oc5c4)c[nH]c3n2)c(OC)c1

[87.1, 9.85]

====

System: 454973-116-R2-J3-PDC spheroids, percent test/control viability
Test: Anticancer human tumor 454973-116-R2-J3-PDC cell line growth inhibition [CLK];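 further: spheroids exposed to compounds for 7 days before readout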
Conditions: second compound 0.1 µM; first compound 0.01 µM; stronger effect = lower value; spheroids with HUVEC and MSC
Consider the cut-off 60%. If the recorded viability, T/C is strictly smaller, the label is class 1; if not, the label is class 0.

Some entries whose results are on file:
{"compound": "CCc1c2c(nc3ccc(O)cc13)-c1cc3c(c(=O)n1C2)COC(=O)[C@]3(O)CC + CN1CCN(c2cc(C(=O)Nc3cc4cc(-c5cnn(C)c5)ccc4cn3)ccn2)CC1", "assigned category": "class 1"}
{"compound": "CCN1CCN(Cc2ccc(Nc3ncc(F)c(-c4cc(F)c5nc(C)n(C(C)C)c5c4)n3)nc2)CC1 + CN1CCN(c2cc(C(=O)Nc3cc4cc(-c5cnn(C)c5)ccc4cn3)ccn2)CC1", "assigned category": "class 0"}
{"compound": "Cn1ncnc1[C@H]1c2n[nH]c(=O)c3cc(F)cc(c23)N[C@@H]1c1ccc(F)cc1 + CN1CCN(c2cc(C(=O)Nc3cc4cc(-c5cnn(C)c5)ccc4cn3)ccn2)CC1", "assigned category": "class 0"}
{"compound": "CCc1c2c(nc3ccc(O)cc13)-c1cc3c(c(=O)n1C2)COC(=O)[C@]3(O)CC + CNC(=O)c1ccc(Nc2nc(OC3CCCC3)c3c(-c4ccc5nc(C)oc5c4)c[nH]c3n2)c(OC)c1", "assigned category": "class 1"}
{"compound": "COc1c(OCCCN2CCOCC2)ccc2c3n(c(=NC(=O)c4cnc(N)nc4)nc12)CCN3 + CN1CCN(c2cc(C(=O)Nc3cc4cc(-c5cnn(C)c5)ccc4cn3)ccn2)CC1", "assigned category": "class 0"}

Lab note: viability, T/C threshold 60%. Does this compound come in strictly under it? CCN1CCN(Cc2ccc(Nc3ncc(F)c(-c4cc(F)c5nc(C)n(C(C)C)c5c4)n3)nc2)CC1 + CNC(=O)c1ccc(Nc2nc(OC3CCCC3)c3c(-c4ccc5nc(C)oc5c4)c[nH]c3n2)c(OC)c1
class 0

Lab note: viability, T/C threshold 60%. Does this compound come in strictly under it? COc1c(OCCCN2CCOCC2)ccc2c3n(c(=NC(=O)c4cnc(N)nc4)nc12)CCN3 + CNC(=O)c1ccc(Nc2nc(OC3CCCC3)c3c(-c4ccc5nc(C)oc5c4)c[nH]c3n2)c(OC)c1
class 0

Lab note: viability, T/C threshold 60%. Does this compound come in strictly under it? Cn1ncnc1[C@H]1c2n[nH]c(=O)c3cc(F)cc(c23)N[C@@H]1c1ccc(F)cc1 + CNC(=O)c1ccc(Nc2nc(OC3CCCC3)c3c(-c4ccc5nc(C)oc5c4)c[nH]c3n2)c(OC)c1
class 0
